Test system: FMOC02_3 (patient-derived low-grade serous ovarian cancer cells)
Assay: drug sensitivity score (DSS3, normalised partial AUC of % inhibition dose-response) (DSS (score)); higher = more sensitive (stronger inhibition of viability); extreme values may be limits of the assay
Details: 72 h; library: FO5A; assay format: 2D, 384-well, CellTiter-Glo
drug sensitivity score class ranges: one = under 2, two = from 2 up to 8, three = 8 and over

compound="Nc1cccc2c1C(=O)N(C1CCC(=O)NC1=O)C2=O (configuration not stated) [Pomalidomide]" label_class=one
compound="CC(C)C[C@H](NC(=O)[C@H](Cc1ccccc1)NC(=O)c1cnccn1)B(O)O [Bortezomib]" label_class=three

# bin lookup: classify CC(=O)c1cnc2ccc(-c3cc(Cl)c(O)c(Cl)c3)nc2c1N[C@H]1CC[C@H](CN(C)C)CC1 [OTS167] by its drug sensitivity score three

Now this one: `C[C@@H]1CN(CC(=O)Nc2ccc3c(c2)Cc2cccc(-c4cc(=O)cc(N5CCOCC5)o4)c2S3)C[C@H](C)O1` one

Now this one: O=C(O)CCCCC(CCSCc1ccccc1)SCc1ccccc1 (configuration not stated) [CPI-613] one

Now this one: COc1ccc(-c2ccc3ncc4c(c3c2)n(-c2ccc(N3CCNCC3)c(C(F)(F)F)c2)c(=O)n4C)cn1 [NVP-BGT226] three

Now this one: COc1cc(C)c(/C=C/C(C)=C/C=C/C(C)=C/C(=O)O)c(C)c1C [Acitretin] two

Now this one: `NCC(=O)Nc1ccc(-n2nc(C(F)(F)F)cc2-c2ccc3c(ccc4ccccc43)c2)cc1` one

Now this one: Nc1nc(Cl)nc2c1ncn2[C@H]1C[C@H](O)[C@@H](CO)O1 [Cladribine] two

###

Test system: FMOC25_1 (patient-derived low-grade serous ovarian cancer cells)
Test: drug sensitivity score (DSS3, normalised partial AUC of % inhibition dose-response) (DSS (score)); higher = more sensitive (stronger inhibition of viability); extreme values may be limits of the assay
Settings: 72 h; library: FO4B; assay format: 2D, 384-well, CellTiter-Glo
experimental endpoint: drug sensitivity score
Could you keep your reply to the number by itself?

Which value of drug sensitivity score has been reported for NC(=O)N1CCC(CC(=O)N2CCC([C@H]3c4ncc(Br)cc4CCc4cc(Cl)cc(Br)c43)CC2)CC1 [Lonafarnib] in the records? 2.7

Now this one: CCc1c(C(=O)C(N)=O)c2c(OCC(=O)O)cccc2n1Cc1ccccc1 [Varespladib] 0

Now this one: Nc1cccc2c1CN(C1CCC(=O)NC1=O)C2=O (stereo not drawn) [Lenalidomide] 0

Now this one: `CCc1cc(Nc2nccc(-c3c(-c4ccc(OC)c(C(=O)Nc5c(F)cccc5F)c4)nc4ccccn34)n2)c(OC)cc1N1CCC(N2CCN(S(C)(=O)=O)CC2)CC1` 3.9

Now this one: C=CCc1cccc(/C=N/NC(=O)CN2CCN(Cc3ccccc3)CC2)c1O [PAC-1] 0.4

Now this one: C[C@]1(O)C[C@@H](c2nc(-c3ccc4ccc(-c5ccccc5)nc4c3)c3c(N)nccn32)C1 [Linsitinib] 3.7

Now this one: Cc1c(F)cc(C(=O)NC2CC2)cc1-c1ccc(C(=O)NCC(C)(C)C)cn1 [Losmapimod] 0

Now this one: `Oc1c2ccccc2c2c3c(cccc13)N=N2` 4.3

###

The molecules listed here are annotated with their drug sensitivity score.
Test system: FMOC14 (patient-derived high-grade serous ovarian cancer cells)
Assay: drug sensitivity score (DSS3, normalised partial AUC of % inhibition dose-response) (DSS (score)); higher = more sensitive (stronger inhibition of viability); extreme values may be limits of the assay
Conditions: 72 h; library: FO5A; assay format: 2D, 384-well, CellTiter-Glo
Could you keep your reply to the number by itself?

molecule=CC(C)c1cc(C(=O)N2Cc3ccc(CN4CCN(C)CC4)cc3C2)c(O)cc1O measured_value=9

Which value of drug sensitivity score has been reported for Cc1sc2c(c1C)C(c1ccc(Cl)cc1)=N[C@@H](CC(=O)NCCCCNC(=O)COc1cccc3c1C(=O)N(C1CCC(=O)NC1=O)C3=O)c1nnc(C)n1-2 (some centres not stated) in the records? 8.9

Now this one: `CC(=O)O[C@@]12CO[C@@H]1C[C@H](O)[C@@]1(C)C(=O)[C@H](O)C3=C(C)[C@@H](OC(=O)[C@H](O)[C@@H](NC(=O)OC(C)(C)C)c4ccccc4)C[C@@](O)([C@@H](OC(=O)c4ccccc4)[C@H]21)C3(C)C` 0
